Provenance of the data: ChEMBL document CHEMBL1135869

TARGET_DESC: Cyclin-dependent kinase 2/cyclin A (Homo sapiens, UniProt P24941)
ASSAY_TEXT: In vitro inhibition of CDK2-cyclin A kinase activity on retinoblastoma protein
Type: protein-complex assay
Starred links: 1 amine or outer side, 2 acyl side, 3 side chain; linkers in the order of their positions; H or OH if unused. Non-standard residues stand in square brackets, D forms with d. Residues, ends and D or L forms follow the SMILES beside them. X2 = O=C(/C(=C/c1ccccc1)N[*:1])[*:2]
RECORDED_METRIC: IC50 (µM)

// known answers, use as guide
# COMPOUND, READOUT_NUMBER
rows = [
    ("CC[C@H](C)[C@H](NC(=O)[C@H](CC(C)C)NC(=O)[C@H](CCCN=C(N)N)NC(=O)[C@H](CCCN=C(N)N)NC(=O)[C@H](CCCCN)NC(=O)[C@H](CO)NC(=O)[C@@H](N)Cc1c[nH]cn1)C(=O)N/C(=C\\c1ccccc1)C(=O)O (H-HSKRRLI[X2]-OH)", 1.3),
    ("CC[C@H](C)[C@H](NC(=O)[C@H](CC(C)C)NC(=O)[C@H](CCCN=C(N)N)NC(=O)[C@H](CCCN=C(N)N)NC(=O)[C@H](CCCCN)NC(=O)[C@H](CO)NC(=O)[C@@H](N)Cc1c[nH]cn1)C(=O)N[C@@H](C(=O)O)[C@@H](O)c1ccccc1", 1.2),
]

(1) CC[C@H](C)[C@H](NC(=O)[C@H](CC(C)C)NC(=O)[C@H](CCCN=C(N)N)NC(=O)[C@H](CCCN=C(N)N)NC(=O)[C@H](CCCCN)NC(=O)[C@H](CO)NC(=O)[C@@H](N)Cc1c[nH]cn1)C(=O)N[C@H](CO)Cc1ccccc1
(2) CC[C@H](C)[C@H](NC(=O)[C@H](CC(C)C)NC(=O)[C@H](CCCNC(=N)N)NC(=O)[C@H](CCCNC(=N)N)NC(=O)[C@H](CCCCN)NC(=O)[C@H](C)NC(=O)[C@@H](N)Cc1cnc[nH]1)C(=O)N[C@@H](C(=O)O)[C@@H](OC(C)=O)c1ccccc1
When their IC50 values are compared, which is larger, 1 or 2 ? Write down the label attached to your selection.
1
(1: 0.43 µM, 2: 0.2 µM)
